# system-tested: T1, histidine-tagged human Siglec-7 (NovoProtein) (human, UniProt Q9Y286 19-353)
# T1 construct: Bought protein; also called recombinant human Siglec-7; recombinant Siglec-7; not shown: histidine tag
# T1 sequence (Q9Y286 19-353 limits assumed): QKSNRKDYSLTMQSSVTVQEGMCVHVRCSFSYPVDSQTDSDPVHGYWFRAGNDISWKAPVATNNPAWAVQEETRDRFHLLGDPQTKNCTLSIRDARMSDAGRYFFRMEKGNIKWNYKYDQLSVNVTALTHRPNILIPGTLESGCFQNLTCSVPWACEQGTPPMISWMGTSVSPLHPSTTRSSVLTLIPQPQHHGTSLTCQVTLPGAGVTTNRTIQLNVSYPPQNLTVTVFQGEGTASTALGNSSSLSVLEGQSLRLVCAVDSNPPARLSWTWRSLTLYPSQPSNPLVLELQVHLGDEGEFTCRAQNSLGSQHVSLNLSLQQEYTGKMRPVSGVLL
# protocol-summary: BLI, antibody captured
For each of the binders below, state its fold improvement over S7AB-H8.
Give bare numbers, in fold.

S7AB-H8.37 (antibody, V domains shown) VH: QVQLVQSGAEVKKPGASVKVSCKASGYAFTMAWMNWVRQAPGQGLEWIGRIFPGYGHTNYAQKFQGRATLTEDTSTSTAYMELSSLRSEDTAVYYCARDYSDYYFDYWGQGTLVTVSS VL: DIQMTQSPSSLSASVGDRVTITCRGSQDINTYLNWYQQKPGKAPKLLIYYTSRLHSGVPSRFSGSGSGTDYTLTISSLQPEDFATYYCQQGNVLPWTFGQGTKLEIK | 7.8

Please supply fold improvement over S7AB-H8 for each of the following items, keeping them in order.
1. S7AB-H8.20 (antibody, V domains shown) VH: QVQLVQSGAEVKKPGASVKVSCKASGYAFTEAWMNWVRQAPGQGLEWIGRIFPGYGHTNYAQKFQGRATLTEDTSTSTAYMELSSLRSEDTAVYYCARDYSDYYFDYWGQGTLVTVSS VL: DIQMTQSPSSLSASVGDRVTITCRGSQDTNTYLNWYQQKPGKAPKLLIYYTSRLHSGVPSRFSGSGSGTDYTLTISSLQPEDFATYYCQQGNTLPWTFGQGTKLEIK
2. S7AB-H8.39 (antibody, V domains shown) VH: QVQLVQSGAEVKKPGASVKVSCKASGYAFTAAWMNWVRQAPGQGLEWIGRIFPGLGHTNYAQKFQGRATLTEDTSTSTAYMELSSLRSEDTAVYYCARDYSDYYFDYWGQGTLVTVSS VL: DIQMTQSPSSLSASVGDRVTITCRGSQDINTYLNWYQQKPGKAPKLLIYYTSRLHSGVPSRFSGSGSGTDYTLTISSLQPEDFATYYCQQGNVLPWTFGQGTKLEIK
3. S7AB-H8.9 (antibody, V domains shown) VH: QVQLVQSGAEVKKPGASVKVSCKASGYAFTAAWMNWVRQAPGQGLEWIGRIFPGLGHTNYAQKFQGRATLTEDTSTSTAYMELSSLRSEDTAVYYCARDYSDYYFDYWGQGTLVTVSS VL: DIQMTQSPSSLSASVGDRVTITCRGSQDINTYLNWYQQKPGKAPKLLIYYTSRLHSGVPSRFSGSGSGTDYTLTISSLQPEDFATYYCQQGNTKPWTFGQGTKLEIK
4. S7AB-H8.44 (antibody, V domains shown) VH: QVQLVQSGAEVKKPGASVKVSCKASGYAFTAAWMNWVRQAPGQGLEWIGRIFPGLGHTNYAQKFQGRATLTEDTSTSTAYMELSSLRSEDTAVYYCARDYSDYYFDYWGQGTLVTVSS VL: DIQMTQSPSSLSASVGDRVTITCRGSQDINTYLNWYQQKPGKAPKLLIYYTSRLHSGVPSRFSGSGSGTDYTLTISSLQPEDFATYYCQQGNILPWTFGQGTKLEIK

Outgoing:
1: 0.6; 2: 4.9; 3: 2; 4: 5.3
